B1: Pistol ribozyme (parent)
chain: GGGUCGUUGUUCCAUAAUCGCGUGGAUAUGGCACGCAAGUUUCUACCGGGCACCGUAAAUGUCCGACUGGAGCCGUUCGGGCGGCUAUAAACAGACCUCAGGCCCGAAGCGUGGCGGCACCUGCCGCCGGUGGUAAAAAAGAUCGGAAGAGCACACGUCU

# Variants of: B1
# experiment.summary: aptazyme ON/OFF ratio, guanine; higher = stronger switching; co-transcriptional cleavage with and without guanine
Each entry below lists one item and its recorded aptazyme ON/OFF ratio value.

variant.code	aptazyme ON/OFF ratio
U7C G9U U11A C12A C13G	1.1
U7A U8C G9C U10C U11C C12G C13U	1.07
U7C G9C U11G C12U C13A	1.1
G9A U10G U11G C12U C13U	1.55
U7G U8C G9C U10A C12G C13U	1.09
U7G U8G G9C U10C U11C C12U	1.18
U7A G9U U11G C12A	1.11
U7G U8G G9C U11G C13G	1.16
U7G U8G G9A U10C U11G C12G C13G	1.14
U7C U8A G9U U11A C12G	1.14
G9U U10C U11G C12A C13G	1.22
U8A G9U C12G C13U	1.26
U7C G9C U10A U11A C12A C13G	1.08
U7G U8A G9C U10G C12A C13U	1.05
U7A G9C U10G C12G C13G	1.1
U8A G9U U10G U11A C12U C13A	1.13
U7A U8C G9U U10A U11A C12U C13G	1.12
U7C U8A G9A U10C U11C C12U C13G	1.04
U7A U8A G9C U10A C13G	1.07
U7C U8G U11C C12G C13U	1.17
U7A U8G G9A U11A C12A	1.56
U8C U10C U11G C13U	1.28
